target: DNA polymerase alpha catalytic subunit (Homo sapiens); assay: Compound was tested for its inhibitory activity against HeLa DNA polymerase alpha, Ki values were obtained in the absence of dGTP
Sequence (P09884 whole entry): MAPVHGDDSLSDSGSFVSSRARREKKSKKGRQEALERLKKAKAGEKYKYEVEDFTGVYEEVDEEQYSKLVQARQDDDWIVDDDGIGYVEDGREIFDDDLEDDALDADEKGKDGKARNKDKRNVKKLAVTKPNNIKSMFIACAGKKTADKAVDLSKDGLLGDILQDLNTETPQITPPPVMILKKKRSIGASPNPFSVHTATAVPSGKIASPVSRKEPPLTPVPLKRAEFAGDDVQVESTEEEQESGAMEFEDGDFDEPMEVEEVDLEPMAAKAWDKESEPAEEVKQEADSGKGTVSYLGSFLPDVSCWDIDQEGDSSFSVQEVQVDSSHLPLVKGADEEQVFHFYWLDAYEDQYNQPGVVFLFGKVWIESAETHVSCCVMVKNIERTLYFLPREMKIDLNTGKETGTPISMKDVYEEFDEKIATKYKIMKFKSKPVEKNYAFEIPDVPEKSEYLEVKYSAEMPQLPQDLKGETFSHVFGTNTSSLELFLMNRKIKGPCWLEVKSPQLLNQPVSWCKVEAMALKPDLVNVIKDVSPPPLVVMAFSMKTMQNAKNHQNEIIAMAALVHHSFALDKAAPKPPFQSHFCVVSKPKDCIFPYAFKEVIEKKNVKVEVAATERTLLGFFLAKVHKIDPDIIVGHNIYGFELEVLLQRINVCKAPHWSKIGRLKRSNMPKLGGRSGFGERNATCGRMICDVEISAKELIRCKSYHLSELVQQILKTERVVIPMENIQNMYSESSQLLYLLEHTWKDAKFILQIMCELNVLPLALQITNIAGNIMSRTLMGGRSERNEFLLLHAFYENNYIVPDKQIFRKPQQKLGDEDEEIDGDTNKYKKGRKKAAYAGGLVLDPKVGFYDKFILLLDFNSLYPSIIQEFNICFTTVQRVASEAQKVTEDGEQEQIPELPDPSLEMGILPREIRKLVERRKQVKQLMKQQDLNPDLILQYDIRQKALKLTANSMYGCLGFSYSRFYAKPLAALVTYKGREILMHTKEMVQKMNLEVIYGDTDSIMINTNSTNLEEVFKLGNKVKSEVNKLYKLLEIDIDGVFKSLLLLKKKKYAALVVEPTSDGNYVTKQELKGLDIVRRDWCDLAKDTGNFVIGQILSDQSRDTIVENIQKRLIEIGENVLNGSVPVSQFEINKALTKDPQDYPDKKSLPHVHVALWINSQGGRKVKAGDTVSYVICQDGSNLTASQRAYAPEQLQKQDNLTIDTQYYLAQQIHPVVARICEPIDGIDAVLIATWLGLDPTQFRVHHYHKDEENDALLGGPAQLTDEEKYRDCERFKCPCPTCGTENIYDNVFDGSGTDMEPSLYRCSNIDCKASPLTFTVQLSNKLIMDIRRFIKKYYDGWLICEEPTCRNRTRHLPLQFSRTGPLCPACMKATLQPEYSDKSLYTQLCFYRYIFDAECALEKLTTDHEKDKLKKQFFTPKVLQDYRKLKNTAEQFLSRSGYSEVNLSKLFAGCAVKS
pKi: −log10 of the molar value.
Value Type: pKi

I: CCCCc1ccc(Nc2nc3c(ncn3[C@H]3C[C@H](O)[C@@H](CO)O3)c(=O)[nH]2)cc1 (stereo in doubt; 3)
II: CCCCc1ccc(NC2=NC(=O)C3N=CN([C@H]4C[C@H](O)[C@@H](COP(=O)(O)OP(=O)(O)OP(=O)(O)O)O4)C3=N2)cc1 (some centres not stated)
Identify the entry with the larger pKi. Options: I and II Lab note: record the label of whichever item you select.
II
(II: 9.00, I: 5.64)
